For each record, write down the corresponding IC50.
Tested on: MIA PaCa-2
protocol-details: Anti-proliferation 2D CTG test (MIA PaCa-2)
Assay type: cell-based
particulars: MIAPACA-2 cells, 500 cells/well, 5 days incubation with compound, CTG readout
Returns: string containing the number followed by the unit.

Query :: Lookup: IC50 / MIA PaCa-2 / C=CC(=O)N1CCN(c2nc(=O)n3c4nc(c(F)cc24)-c2c(ccc(Cl)c2F)OCC(OCC)C(O)c2ccnc(C(C)C)c2-3)[C@@H](C)C1 (stereo partly drawn) [Example 75]
Result :: 6 nM

Query :: Record C=CC(=O)N1C[C@H](C)N(c2nc(=O)n3c4nc(c(F)cc24)-c2c(F)cccc2OCC(O)C(OCC)c2ccnc(C(C)C)c2-3)C[C@H]1C (stereo partly drawn) [Example 57] : what is its IC50 with MIA PaCa-2?
Result :: 18 nM

Query :: Hi! What's the reported IC50 for C=CC(=O)N1CCN(c2nc(=O)n3c4nc(c(F)cc24)-c2c(F)cccc2OCC(O)C(O)c2ccnc(C(C)C)c2-3)[C@@H](C)C1 (stereo partly drawn) [Example 1-R] on MIA PaCa-2?
Result :: 12 nM

Query :: Could you share what IC50 was measured for C=CC(=O)N1CCN(c2nc(=O)n3c4nc(c(F)cc24)-c2c(F)cccc2OCC(O)C(OCC(F)F)c2ccnc(C(C)C)c2-3)[C@@H](C)C1 (stereo partly drawn) [Example 51] , tested on MIA PaCa-2?
Result :: 7 nM

Query :: Entry C=CC(=O)N1C[C@H](C)N(c2nc(=O)n3c4nc(c(F)cc24)-c2c(ccc(Cl)c2F)OCC(O)C(OCC)c2ccnc(C(C)C)c2-3)C[C@H]1C (stereo partly drawn) [Example 76] , system MIA PaCa-2: what IC50 was measured?
Result :: 4 nM

Query :: Item: C=CC(=O)N1CCN(c2nc(=O)n3c4nc(c(F)cc24)-c2c(ccc(Cl)c2F)OCC(OCC)C(O)c2ccnc(C(C)C)c2-3)[C@@H](C)C1 (stereo partly drawn) [Example 69] Test system: MIA PaCa-2 Read-out: IC50 Value: ?
Result :: 26 nM

----------
Tested on: H358
protocol-details: Anti-proliferation 2D CTG test (H358)
Type: cell-based
particulars: H358 cells, 1500 cells/well, 5 days incubation with compound, CTG readout
outcome-measure: IC50 (µM)
Numbers only here, please. The scale is µM.

Query :: What value of measured IC50 is listed for C=CC(=O)N1CCN(c2nc(=O)n3c4nc(c(F)cc24)-c2c(F)cccc2OCC(OC(C)=O)C(OC(C)=O)c2ccnc(C(C)C)c2-3)[C@@H](C)C1 (stereo partly drawn) [Example 18-R] ?
Result :: 0.016

Query :: Look up IC50 for this molecule: C=CC(=O)N1CCN(c2nc(=O)n3c4nc(c(F)cc24)-c2c(F)cccc2OCC(O)C(O)c2ccnc(C(C)C)c2-3)[C@@H](C)C1 (stereo partly drawn) [Example 1]
Result :: 0.013

Query :: Please report the recorded IC50 for C=CC(=O)N1CCN(c2nc(=O)n3c4nc(c(F)cc24)-c2c(F)cccc2OCC(OCC(F)F)C(O)c2ccnc(C(C)C)c2-3)[C@@H](C)C1 (stereo partly drawn) [Example 54] .
Result :: 0.83

----------
Test system: H358
protocol-details: Anti-proliferation 2D CTG test (H358)
Type: cell-based
particulars: H358 cells, 1500 cells/well, 5 days incubation with compound, CTG readout
I'd appreciate it if you could supply pIC50 values for the items below.
Scale: negative log10 of molar concentration, which is what pIC50 denotes.

Query :: Suppose we examine the molecule C=CC(=O)N1CCN(c2nc(=O)n3c4nc(c(F)cc24)-c2c(F)cccc2OCC(O)C(OCC)c2ccnc(C(C)C)c2-3)[C@@H](C)C1 (stereo partly drawn) [Example 44] ; what pIC50 value has been reported?
Result :: 6.60

Query :: Recorded pIC50 for C=CC(=O)N1CCN(c2nc(=O)n3c4nc(c(F)cc24)-c2c(F)cccc2OCC(O)C(O)c2ccnc(C(C)C)c2-3)[C@@H](C)C1 (stereo partly drawn) [Example 1-S] , please?
Result :: 6.03

Query :: What value of pIC50 has been reported for the following molecule? C=CC(=O)N1CCN(c2nc(=O)n3c4nc(c(F)cc24)-c2c(ccc(Cl)c2F)OCC(OCC)C(O)c2ccnc(C(C)C)c2-3)[C@@H](C)C1 (stereo partly drawn) [Example 69]
Result :: 7.51

----------
System: MIA PaCa-2
protocol-details: Anti-proliferation 2D CTG test (MIA PaCa-2)
Type: cell-based
particulars: MIAPACA-2 cells, 500 cells/well, 5 days incubation with compound, CTG readout
pIC50: −log10 of the molar value.
Decide by pIC50: equal to or exceeding 8 means Satisfied, less means Not satisfied.

Query :: Identify whether the reported pIC50 of the following molecule is 8 or greater: C=CC(=O)N1CCN(c2nc(=O)n3c4nc(c(F)cc24)-c2c(F)cccc2OCC(O)C(OC)c2ccnc(C(C)C)c2-3)[C@@H](C)C1 (stereo partly shown) [Example 42]
Result :: Not satisfied

Query :: Could you verify whether the entry C=CC(=O)N1C[C@H](C)N(c2nc(=O)n3c4nc(c(F)cc24)-c2c(ccc(Cl)c2F)OCC(OCC)C(O)c2ccnc(C(C)C)c2-3)C[C@H]1C (stereo partly shown) [Example 71] shows pIC50 of no less than 8?
Result :: Satisfied

Query :: Reported pIC50 at or above 8? C=CC(=O)N1CCN(c2nc(=O)n3c4nc(c(F)cc24)-c2c(F)cccc2OCC(OCC(F)F)C(O)c2ccnc(C(C)C)c2-3)[C@@H](C)C1 (stereo partly shown) [Example 54]
Result :: Not satisfied

Query :: Decide: pIC50 of C=CC(=O)N1CCN(c2nc(=O)n3c4nc(c(F)cc24)-c2c(F)cccc2OCC(O)C(OC)c2ccnc(C(C)C)c2-3)[C@@H](C)C1 (stereo partly shown) [Example 41] >= 8?
Result :: Satisfied

Query :: Identify whether the reported pIC50 of the following molecule is 8 or greater: C=CC(=O)N1C[C@H](C)N(c2nc(=O)n3c4nc(c(F)cc24)-c2c(F)cccc2OCC(O)C(O)c2ccnc(C(C)C)c2-3)C[C@H]1C (stereo partly shown) [Example 3]
Result :: Not satisfied

Query :: Identify whether the reported pIC50 of the following molecule is 8 or greater: C=CC(=O)N1C[C@H](C)N(c2nc(=O)n3c4nc(c(F)cc24)-c2c(F)cccc2OCC(O)C(O)c2ccnc(C(C)C)c2-3)C[C@H]1C (stereo partly shown) [Example 2]
Result :: Satisfied

Query :: Test whether the molecule C=CC(=O)N1CCN(c2nc(=O)n3c4nc(c(F)cc24)-c2c(F)cccc2OCC(O)C(OCC)c2ccnc(C(C)C)c2-3)[C@@H](C)C1 (stereo partly shown) [Example 28] records pIC50 of 8 or higher.
Result :: Not satisfied

Query :: Determine whether this molecule has pIC50 no lower than 8: C=CC(=O)N1CCN(c2nc(=O)n3c4nc(c(F)cc24)-c2c(F)cccc2OCC(OCC(F)F)C(O)c2ccnc(C(C)C)c2-3)[C@@H](C)C1 (stereo partly shown) [Example 33]
Result :: Not satisfied

Query :: Tell me whether pIC50 is at least 8 here: C=CC(=O)N1CCN(c2nc(=O)n3c4nc(c(F)cc24)-c2c(F)cccc2OCC(O)C(OC)c2ccnc(C(C)C)c2-3)[C@@H](C)C1 (stereo partly shown) [Example 26]
Result :: Satisfied

Query :: Assess whether reported pIC50 for C=CC(=O)N1CCN(c2nc(=O)n3c4nc(c(F)cc24)-c2c(F)cccc2OCC(OCC)C(O)c2ccnc(C(C)C)c2-3)[C@@H](C)C1 (stereo partly shown) [Example 46] sits at 8 or higher.
Result :: Not satisfied

Query :: Please tell me: is the molecule C=CC(=O)N1C[C@H](C)N(c2nc(=O)n3c4nc(c(F)cc24)-c2c(ccc(Cl)c2F)OCC(OCC)C(O)c2ccnc(C(C)C)c2-3)C[C@H]1C (stereo partly shown) [Example 78] at or over 8 in terms of pIC50?
Result :: Satisfied

Query :: Determine whether this molecule has pIC50 no lower than 8: C=CC(=O)N1CCN(c2nc(=O)n3c4nc(c(F)cc24)-c2c(F)cccc2OCC(OCCF)C(O)c2ccnc(C(C)C)c2-3)[C@@H](C)C1 (stereo partly shown) [Example 39]
Result :: Satisfied

----------
System: MIA PaCa-2
protocol-details: Anti-proliferation 2D CTG test (MIA PaCa-2)
Assay type: cell-based
particulars: MIAPACA-2 cells, 500 cells/well, 5 days incubation with compound, CTG readout
outcome-measure: IC50 (µM)
Please reply with the bare figure in µM and do not write the unit itself.

Query :: Would you mind telling me what IC50 value was observed for C=CC(=O)N1CCN(c2nc(=O)n3c4nc(c(F)cc24)-c2c(F)cccc2OCC(O)C(O)c2ccnc(C(C)C)c2-3)[C@@H](C)C1 (stereo partly drawn) [Example 1-S] ?
Result :: 0.1

Query :: I would be grateful if you could share the reported IC50 for C=CC(=O)N1CCN(c2nc(=O)n3c4nc(c(F)cc24)-c2c(F)cccc2OCC(O)C(OC(=O)C(N)C(C)C)c2ccnc(C(C)C)c2-3)C(C)C1 (stereo not drawn) [Example 23] .
Result :: 0.009

Query :: Which IC50 is listed for C=CC(=O)N1CCN(c2nc(=O)n3c4nc(c(F)cc24)-c2c(F)cccc2OCC(OCC2CC2)C(O)c2ccnc(C(C)C)c2-3)[C@@H](C)C1 (stereo partly drawn) [Example 49] ?
Result :: 0.006

Query :: Returns the measured IC50 for the input compound. Input: C=CC(=O)N1CCN(c2nc(=O)n3c4nc(c(F)cc24)-c2c(ccc(Cl)c2F)OCC(O)C(O)c2ccnc(C(C)C)c2-3)[C@@H](C)C1 (stereo partly drawn) [Example 66]
Result :: 0.003

Query :: Form field: reported IC50 of C=CC(=O)N1CCN(c2nc(=O)n3c4nc(c(F)cc24)-c2c(ccc(Cl)c2F)OCC(O)C(OCC)c2ccnc(C(C)C)c2-3)[C@@H](C)C1 (stereo partly drawn) [Example 68]
Result :: 0.022

Query :: Fill in: IC50 of C=CC(=O)N1CCN(c2nc(=O)n3c4nc(c(F)cc24)-c2c(F)cccc2OCC(OC(C)C)C(O)c2ccnc(C(C)C)c2-3)[C@@H](C)C1 (stereo partly drawn) [Example 56] is ___
Result :: 0.218
